conditions: 288.15 K; Liquid; Gas chromatography
assay endpoint: vapor or sublimation pressure (kPa)

[[record]]
structure_as_smiles = "c1ccc(CN(Cc2ccccc2)Cc2ccccc2)cc1"
measured_result = "1.4e-07"

[[record]]
structure_as_smiles = "CCCN(CCC)CCC"
measured_result = 0.278

[[record]]
structure_as_smiles = "CCCCN(CCCC)CCCC"
measured_result = 0.013

[[record]]
structure_as_smiles = "CCCCCCCCCCCCCCCCN(C)C"
measured_result = "3e-06"


Cited source for all entries: the NIST ThermoML archive (doi:10.1021/je500358r)
